System: SF-268
Assay: NCI tumour cell line growth inhibition, 48 h
The source made the active and inactive calls. No stated cut-off is given here; in the data, active = GI50 up to about 1.1 µM and inactive = higher.
QUANTITY_KIND: GI50

Please review the following examples before continuing.
| COMPOUND | GI50 |
| --- | --- |
| CC(C)=CCc1c(O)ccc2ccc(=O)oc12 | 33.7 µM (inactive) |
| CC(=O)OCC1OC(N=[N+]=[N-])C(OC(C)=O)C(OC(C)=O)C1OC1OC(COC(C)=O)C(OC(C)=O)C(OC(C)=O)C1OC(C)=O (centres undefined) | > 100 µM (inactive) |
| CN1C(c2ccccc2)CC(=NO)CC1c1ccccc1 (centres undefined) | 55.7 µM (inactive) |

With those in mind, consider the next compound.
// Input: O=c1ccn(C2OC(CN(O)CCC3C(O)C(CO)OC3n3ccc(=O)[nH]c3=O)C(O)C2O)c(=O)[nH]1 (centres undefined) . Output its GI50 only.
> 100 µM (inactive)
